These entries and their values trace back to PubChem BioAssay.

In this section we review reported z-score values for a set of compounds.
protocol.summary: modulators of S6 phosphorylation in cells, primary screen, cell-based, A549, cytoblot, luminescence, serum-stimulated (AID 1158);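 further: serum-stimulated A549 lung adenocarcinoma cells; signal is phosphorylated S6 detected by cytoblot immunostaining with HRP secondary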
experimental.conditions: A549 phospho-S6 cytoblot, 5 h, higher = more signal
metric: z-score

compound: CC(=O)NCCCC[C@@H]1NC(=O)[C@@H]2C[C@H](C(=O)O)[C@H](c3ccc(O)cc3)N2C1=O
experimental.result: -0.544
//
compound: O=C1O[C@@H](c2ccccc2)[C@@H](c2ccccc2)N2[C@@H](c3ccc(O)cc3)[C@]3(C(=O)Nc4ccccc43)[C@@H](C(=O)Nc3nc4ccccc4s3)[C@H]12
experimental.result: -0.132
//
compound: COCCCNC(=O)[C@]1(Cc2ccccc2N=[N+]=[N-])N=C(c2ccc(OCCCO)cc2)O[C@@H]1c1ccccc1N=[N+]=[N-]
experimental.result: 0.105
//
compound: COCCOC(=O)N1C(=O)[C@@]2(c3ccccc31)[C@H](c1ccc(OCCO)cc1)N1[C@H](c3ccccc3)[C@H](c3ccccc3)OC(=O)[C@H]1[C@@H]2C(=O)Nc1nc2ccccc2s1
experimental.result: -0.381
//
compound: CCCC[C@@H]1C[C@H]1[C@@H](NC(=O)c1cccnc1)c1ccc(-c2ccccc2)cc1
experimental.result: -0.0675
//
compound: Cc1ccc(S[C@]2(C(=O)NCc3ccccc3)CC(=O)N(C(C)C)[C@@H]2c2ccc(CO)cc2I)cc1
experimental.result: 0.0741
//
compound: C=CC[C@]12N=C(c3ccc(OCCCO)cc3)O[C@H]1c1ccccc1N(C)C2=O
experimental.result: 0.289
//
compound: CC(C)C(O)C1C=CC2C(=O)N(C)C(=O)C2N1Nc1ccccc1 (stereo not given)
experimental.result: -0.679
//
compound: O=C1O[C@@H](c2ccccc2)[C@@H](c2ccccc2)N2[C@@H](c3ccccc3OCCO)[C@]3(C(=O)Nc4ccccc43)[C@@H](C(=O)NC[C@H](O)c3ccccc3)[C@H]12
experimental.result: -0.589
//
compound: CCCN1C(=O)[C@]2(Cc3ccccc3)N=C(c3ccc(OCCCO)cc3)O[C@@H]2c2ccccc21
experimental.result: 1.56
//
compound: CN(C)CCCCNC(=O)[C@H]1C[C@H]2C(=O)N3CCC[C@H]3C(=O)N2[C@H]1c1ccc(O)cc1
experimental.result: 0.752
//
compound: CCOC(=O)[C@H]1C/C=C/C[C@H](C(=O)OCC)C(=O)O[C@H]2[C@@H](OC)O[C@H](CO)[C@@H](OC(=O)CCc3ccccc3)[C@@H]2OC1=O
experimental.result: -0.0947
//
compound: CC(C)CNC(=O)[C@@H]1c2ccccc2C(=O)N(Cc2cc(F)cc(C(F)(F)F)c2)[C@H]1c1ccc(CO)cc1
experimental.result: 0.207
//
compound: C=CCOC(=O)[C@@H]1[C@H]2C(=O)O[C@H](c3ccccc3)[C@H](c3ccccc3)N2[C@H](c2ccc(OCCOC(=O)[C@H]3C[C@H]4C(=O)N[C@@H](CCCCN(C)C)C(=O)N4[C@H]3c3cccc(OCCO)c3)cc2)[C@@]12C(=O)Nc1ccc(I)cc12
experimental.result: -0.714
//
compound: COc1ccc([Si](C)(C)[C@@H]2[C@@H](CC(=O)N3CCC[C@H]3CO)O[C@]3(C(=O)N(Cc4ccc(N5C(=O)c6cccc7cccc5c67)cc4)c4ccccc43)[C@H]2C)cc1
experimental.result: 0.486
//
compound: COc1ccccc1CN1C(=O)c2ccccc2[C@@H](C(=O)NC(C)C)[C@@H]1c1ccc(CO)cc1
experimental.result: 0.0984
//
compound: CC=CC(O)C1C=CC2C(=O)N(C)C(=O)C2N1Nc1ccc([N+](=O)[O-])cc1[N+](=O)[O-] (stereo not given)
experimental.result: -0.711
//
compound: CCOC(=O)C1=C[C@@H](c2ccccc2)N(S(=O)(=O)c2ccc(C)cc2)[C@H]1c1cccc(Cl)c1
experimental.result: -0.645
//
compound: COCC(=C=CC[C@H](O)c1cccc(OCCO)c1)C[C@H](O)c1ccccn1
experimental.result: 0.789
//
compound: COCCOC(=O)N1C(=O)[C@@]2(c3cc(C#CC4=CCCCC4)ccc31)[C@H](C(=O)N1CCN(c3ncccn3)CC1)[C@H]1C(=O)O[C@H](c3ccccc3)[C@H](c3ccccc3)N1[C@@H]2c1ccc(O)cc1
experimental.result: 1.13

* * *

protocol.summary: compound binding in COS7 lysate, probe aLAP1, primary screen, cell lysate, small-molecule microarray (AID 1124);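 further: lysate comes from COS7 cells expressing LAP1 and is applied at 0.3 µg/mL; score merges spot fluorescence near 667 nm with signal-to-noise over triplicate slides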
experimental.conditions: probe aLAP1, fluorescence, higher = more signal
The threshold is inclusive: composite z-score of exactly 0.1 counts as YES; values below receive NO.

molecule: CN(C)CCCNC(=O)[C@@H]1c2ccccc2C(=O)N(Cc2ccc(OC(F)(F)F)cc2)[C@H]1c1ccc(CO)cc1
answer.label: YES
//
molecule: CCOC(=O)C[C@H]1[C@H](OC(=O)c2ccccc2-c2ccccc2)[C@@H](NC(=O)CC(C)C)c2cc(OCCCO)ccc2N1C(=O)c1ccc2ccccc2n1
answer.label: YES
//
molecule: CC(C)CNC(=O)[C@@]1(c2ccc([N+](=O)[O-])cc2)CC(=O)N(C2CCCCC2)[C@@H]1c1ccc(CO)cc1I
answer.label: YES
//
molecule: C=C[C@@H](C)[C@H](OC(=O)Nc1ccc(SC)cc1)c1ccc(OCCO)cc1
answer.label: NO
//
molecule: C=CC[C@@]1(C(=O)O)N=C(c2ccc(OCCCO)cc2)O[C@@H]1c1ccccc1
answer.label: YES
//
molecule: COCCCNC(=O)[C@@H]1c2ccccc2C(=O)N(Cc2ccccc2C(F)(F)F)[C@H]1c1ccc(CO)cc1
answer.label: YES
//
molecule: C[C@H]1C2=C3C(CC[C@H]4C(OCc5ccc(F)cc5C(F)(F)F)OC[C@](C)([C@@H]34)N(C(=O)OC(C)(C)C)C2)C2COC(=O)OCC21 (stereo not given in full)
answer.label: YES
//
molecule: CC(=O)n1cc(C(O)C2C=CC3C(=O)N(c4ccccc4)C(=O)C3N2Nc2ccccc2)c2ccccc21 (stereo not given)
answer.label: YES
//
molecule: C=C[C@H](COC(C)=O)NS(=O)(=O)c1ccc(Br)cc1
answer.label: NO
//
molecule: NC(=O)N1C(=O)C2C(C1=O)C1C=C(CCCO)C2C(c2cccs2)N1Cc1cc2c(cc1Br)OCO2 (stereo not given)
answer.label: NO
//
molecule: CC(C)OC(=O)CC(=O)CC(O)c1cccc(C#N)c1 (stereo not given)
answer.label: NO
//
molecule: CC(C)N1CC=CC23O[C@@H]4C=CCCOC(=O)C4[C@H]2C(=O)N(CCO)[C@@H]3C1=O (stereo not given in full)
answer.label: YES
//
molecule: COc1cc2c(cc1O)C(C)N(Cc1cc3c(cc1Br)OCO3)CC2 (stereo not given)
answer.label: YES
//
molecule: COc1ccc(C(O)C2C=CC3C(=O)N(Cc4ccccc4)C(=O)C3N2n2cnnc2)c2ccccc12 (stereo not given)
answer.label: YES
//
molecule: O=C(O)[C@H]1C[C@H]2C(=O)N3CCC[C@H]3C(=O)N2[C@H]1c1cccc(OCCO)c1
answer.label: NO
//
molecule: O=C1C2C=CC(C(O)c3cc(C(F)(F)F)cc(C(F)(F)F)c3)N(Nc3ccc([N+](=O)[O-])cc3)C2C(=O)N1c1ccccc1 (stereo not given)
answer.label: NO
//
molecule: CN1C(=O)[C@@]2(CCS(=O)(=O)c3ccccc3)N=C(c3ccc(OCCCO)cc3)O[C@H]2c2ccccc21
answer.label: YES
//
molecule: COc1ccc(C(O)C2C=CC3C(=O)N(c4ccccc4)C(=O)C3N2Nc2ccc(C#N)cc2)c2ccccc12 (stereo not given)
answer.label: YES
//
molecule: C=C(C(=O)CC[C@H](OC(=O)c1cccnc1)c1cccc(OCCO)c1)C(C)C
answer.label: NO

* * *

The following molecules are listed with their measured z-score values.
protocol.summary: mitochondrial membrane potential change in A549 cells, profiling panel, cell-based, JC-1 fluorescence, basal, 24 h, 100 nL (AID 1138);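 further: A549 lung adenocarcinoma cells under basal conditions with no added stimulus; test concentration not given here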
experimental.conditions: higher = more signal
metric: z-score

smiles.entry: COC(=O)[C@@]1(Cc2ccc(OC)cc2)[C@H]2c3cc(C(=O)N(C)C)n(Cc4nc5ccccc5[nH]4)c3C[C@H]2CN1C(=O)c1ccccc1
metric: z-score
experimental.result: 1.95

smiles.entry: CC(C)(C)OC(=O)CC[C@]1(C(=O)NCCN2CCOCC2)N=C(c2ccc(OCCCO)cc2)O[C@H]1c1ccccc1N=[N+]=[N-]
metric: z-score
experimental.result: 0.669

smiles.entry: O=C1c2ccccc2[C@](Cc2ccccc2I)(C(=O)NCCN2CCOCC2)[C@H](c2ccc(CO)cc2)N1Cc1ccccc1
metric: z-score
experimental.result: 0.803

* * *

protocol.summary: RPMI8226 myeloma cell viability, profiling panel, resazurin fluorescence, basal, 24 h, PK04 Diversity Set (AID 1180);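 further: RPMI8826 multiple myeloma cell line at 5000 cells per well; test concentration not given here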
experimental.conditions: higher = more signal
# maps each entry to its z-score

compound: O=C1OCC=C[C@H]2OC34C=CCN(c5ccc(Cl)cc5)C(=O)[C@H]3N(CCCCCO)C(=O)[C@@H]4[C@@H]12 (some centres not stated)
z-score: 0.0508
//
compound: CC(C)CCC[C@@H](C)[C@H]1CC[C@@]2(C)C3=C(CC[C@]12C)[C@@]1(C)CC[C@H](OC(=O)c2ccc(Br)cc2)C(C)(C)C1CC3 (some centres not stated)
z-score: 0.766
//
compound: NCCCCCCNC(=O)[C@@H]1C[C@@H]2C(=O)N3CCC[C@H]3C(=O)N2[C@@H]1c1ccc(O)cc1
z-score: -0.134
//
compound: C[n+]1ccc(CCCO)cc1
z-score: -0.551
//
compound: C=CC[C@@]1(C(=O)N2CCCCC2)N=C(c2ccc(OCCCO)cc2)O[C@@H]1c1ccccc1
z-score: 1.02
//
compound: C=CCN1C(=O)[C@@]2(O[C@@H](CCO)[C@H]([Si](C)(C)c3ccc(OC)cc3)[C@H]2C)c2cc(N3C(=O)c4ccccc4Oc4ccccc43)ccc21
z-score: -6.24
//
compound: CCCNC(=O)[C@@]1(c2ccc([N+](=O)[O-])cc2)CC(=O)N(C2CCCCC2)[C@@H]1c1ccc(CO)cc1I
z-score: -1.18
